Biological target: isolated recombinant JAK1 kinase domain (Homo sapiens)
Construct: isolated recombinant JAK1 and JAK2 kinase domain
Assay: JAK enzyme assay, JAK1 kinase domain (Caliper LabChip)
Details: 1.5 nM JAK1, ATP 25 μM, Morrison tight binding model
Entries and their Ki values follow.
Numbers only; they are read as nM.

1. CCc1cnn(C2(CC#N)CN(c3cccn4nc(Nc5cnn(CC(=O)N6CCN(CCCC#N)CC6)c5)nc34)C2)c1 : 0.3
2. CCc1cnn(C2(CC#N)CN(c3cccn4nc(Nc5cnn(C)c5)nc34)C2)c1 : 0.2
3. CCc1cnn(C2(CC#N)CN(c3cccn4nc(Nc5cnn(CC(=O)N6CCN(CC)CC6)c5)nc34)C2)c1 : 0.5
4. N#CCC1(n2cc(C(F)(F)F)cn2)CN(c2cccn3nc(Nc4cnn(CC(=O)N5CCN(CCO)CC5)c4)nc23)C1 : 0.4
5. CCc1cnn(C2(CC#N)CN(c3cccn4nc(Nc5ccc(C(=O)NCCN6CCOCC6)cc5)nc34)C2)c1 : 0.3
6. N#CCC1(n2cc(C(F)(F)F)cn2)CN(c2cccn3nc(Nc4cnn(CCO)c4)nc23)C1 : 0.3

Next, consider the following molecule.
Prompt line: Request the reported Ki associated with `CSc1cnn(C2(CC#N)CN(c3cccn4nc(Nc5cnn(C)c5)nc34)C2)c1`
Response line: 0.3

---

Entries and their Ki values follow.
Molecular target: isolated recombinant JAK2 kinase domain (Homo sapiens)
Construct: isolated recombinant JAK1 and JAK2 kinase domain
Experiment: JAK enzyme assay, JAK2 kinase domain (Caliper LabChip)
Conditions: 0.2 nM JAK2, ATP 25 μM, Morrison tight binding model
Numbers only; they are read as nM.

Example entries and their recorded answers appear below.
1. COc1cnn(C2(CC#N)CN(c3cccn4nc(Nc5cnn(C)c5)nc34)C2)c1 : 2.8
2. CCc1cnn(C2(CC#N)CN(c3cccn4nc(Nc5ccc(C(=O)NCCCN6CCOCC6)cc5)nc34)C2)c1 : 1.1
3. CCc1cnn(C2(CC#N)CN(c3cccn4nc(Nc5ccc(CC(=O)N6CCN(C)CC6)cc5)nc34)C2)c1 : 0.3
4. CN1CCN(C(=O)Cn2cc(Nc3nc4c(N5CC(CC#N)(c6ccc(F)c(Cl)c6)C5)cccn4n3)cn2)CC1 : 0.2
5. CN1CCN(C(=O)c2ccc(Nc3nc4c(N5CC(CC#N)(n6cc(C7CCOCC7)cn6)C5)cccn4n3)cc2)CC1 : 0.6
6. Cc1cc(Cl)ccc1C1(CC#N)CN(c2cccn3nc(Nc4cnn(CC(=O)N5CCN(C)CC5)c4)nc23)C1 : 2.3

Prompt line: Request the reported Ki associated with `CCc1cnn(C2(CC#N)CN(c3cccn4nc(Nc5ccc6c(c5)CCN(C)C6)nc34)C2)c1`
Response line: 2

---

Entries and their Ki values follow.
Target: isolated recombinant JAK2 kinase domain (Homo sapiens)
Construct: isolated recombinant JAK1 and JAK2 kinase domain
Experiment: JAK enzyme assay, JAK2 kinase domain (Caliper LabChip)
Details: 0.2 nM JAK2, ATP 25 μM, Morrison tight binding model
Numbers only; they are read as nM.

1) Cc1ccccc1-c1cnn(C2(CC#N)CN(c3cccn4nc(Nc5cnn(CC(=O)N6CCN(C)CC6)c5)nc34)C2)c1 : 0.2
2) CCc1cnn(C2(CC#N)CN(c3cccn4nc(Nc5cnn(CC(=O)N6CCN(C)CC6)c5)nc34)C2)c1 : 2

Prompt line: Give the reported Ki for `CN1CCN(C(=O)Cn2cc(Nc3nc4c(N5CC(CC#N)(n6cc(-c7ccccc7)cn6)C5)cccn4n3)cn2)CC1` (system: isolated recombinant JAK2 kinase domain (Homo sapiens)).
Response line: 7.7

Prompt line: Let us now turn to `CN1CCN(C(=O)Cn2cc(Nc3nc4c(N5CC(CC#N)(n6cc(I)cn6)C5)cccn4n3)cn2)CC1`
Response line: 18.8

---

Target: isolated recombinant JAK1 kinase domain (Homo sapiens, UniProt P23458)
Construct: isolated recombinant JAK1 and JAK2 kinase domain
Sequence (P23458 875-1153 limits assumed): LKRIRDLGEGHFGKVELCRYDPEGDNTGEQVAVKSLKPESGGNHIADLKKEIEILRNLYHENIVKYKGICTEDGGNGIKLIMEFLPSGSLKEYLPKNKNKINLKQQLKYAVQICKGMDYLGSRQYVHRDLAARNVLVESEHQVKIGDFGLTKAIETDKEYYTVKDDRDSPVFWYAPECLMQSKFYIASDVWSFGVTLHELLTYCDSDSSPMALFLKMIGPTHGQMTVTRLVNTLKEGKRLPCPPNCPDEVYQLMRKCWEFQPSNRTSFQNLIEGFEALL
Test: JAK enzyme assay, JAK1 kinase domain (Caliper LabChip)
Details: 1.5 nM JAK1, ATP 25 μM, Morrison tight binding model
Description: JAK Enzyme Assays were Carried Out as Follows: The activity of the isolated recombinant JAK1 and JAK2 kinase domain was measured by monitoring phosphorylation of a peptide derived from JAK3 (Val-Ala-Leu-Val-Asp-Gly-Tyr-Phe-Arg-Leu-Thr-Thr, fluorescently labeled on the N-terminus with 5-carboxyfluorescein) using the Caliper LabChip® technology (Caliper Life Sciences, Hopkinton, Mass.). […]
endpoint_name: Ki (nM)
Numbers only; they are read as nM.

1) CCc1cnn(C2(CC#N)CN(c3cccn4nc(Nc5ccc6c(c5)CCN(C)C6)nc34)C2)c1 [Example 50] : 1.8

Prompt line: Give the reported Ki for CN1CCN(C(=O)Cn2cc(Nc3nc4c(N5CC(CC#N)(N6CCC(C#N)CC6)C5)cccn4n3)cn2)CC1 [Example 13] (system: isolated recombinant JAK1 kinase domain (Homo sapiens, UniProt P23458)).
Response line: 1.6

Prompt line: Let us now turn to CCc1cnn(C2(CC#N)CN(c3cccn4nc(Nc5cnn(CC(=O)N6CCC(NCC7(C#N)CC7)CC6)c5)nc34)C2)c1 [Example 4]
Response line: 0.6

Prompt line: Let us now turn to CSc1ccc(C2(CC#N)CN(c3cccn4nc(Nc5cnn(CC(=O)N6CCN(C)CC6)c5)nc34)C2)cc1 [Example 14]
Response line: 1.8

---

Target: isolated recombinant JAK2 kinase domain (Homo sapiens, UniProt O60674)
Construct: isolated recombinant JAK1 and JAK2 kinase domain
Sequence (O60674 849-1124 limits assumed): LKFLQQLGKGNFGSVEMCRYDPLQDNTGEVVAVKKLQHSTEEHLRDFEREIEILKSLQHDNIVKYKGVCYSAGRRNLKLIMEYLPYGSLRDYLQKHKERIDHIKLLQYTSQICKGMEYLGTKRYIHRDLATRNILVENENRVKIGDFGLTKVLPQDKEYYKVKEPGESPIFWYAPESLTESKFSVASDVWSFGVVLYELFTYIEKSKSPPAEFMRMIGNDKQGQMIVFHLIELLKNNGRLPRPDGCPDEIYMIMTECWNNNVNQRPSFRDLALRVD
Experiment: JAK enzyme assay, JAK2 kinase domain (Caliper LabChip)
Conditions: 0.2 nM JAK2, ATP 25 μM, Morrison tight binding model
Entries and their pKi values follow.
Units for pKi: none; it is -log10 of a concentration expressed in mol/L.

Prompt line: Request the reported pKi associated with N#CCC1(n2cc(C(F)(F)F)cn2)CN(c2cccn3nc(Nc4cnn(CC(=O)N5CCN(CCO)CC5)c4)nc23)C1 [Example 125]
Response line: 9.40

---

Molecular target: isolated recombinant JAK1 kinase domain (Homo sapiens, UniProt P23458)
Construct: isolated recombinant JAK1 and JAK2 kinase domain
Assay: JAK enzyme assay, JAK1 kinase domain (Caliper LabChip)
Settings: 1.5 nM JAK1, ATP 25 μM, Morrison tight binding model
endpoint_name: Ki (nM)
Numbers only; they are read as nM.

1. N#CCC1(n2cc(C(F)(F)F)cn2)CN(c2cccn3nc(Nc4ccc(C(=O)N5CCN(C6COC6)CC5)cc4)nc23)C1 [Example 103] : 0.3
2. CN1CCN(C(=O)Cc2ccc(Nc3nc4c(N5CC(CC#N)(n6cc(C(F)(F)F)cn6)C5)cccn4n3)cc2)CC1 [Example 116] : 0.6
3. CC(C)c1cnn(C2(CC#N)CN(c3cccn4nc(Nc5cnn(C)c5)nc34)C2)c1 [Example 138] : 0.2
4. CN1CCN(C(=O)Cn2cc(Nc3nc4c(N5CC(CC#N)(N6CCOCC6)C5)cccn4n3)cn2)CC1 [Example 8] : 0.3
5. CCc1cnn(C2(CC#N)CN(c3cccn4nc(Nc5ccc6c(c5)CCN([C@H]5CCOC5)C6)nc34)C2)c1 (stereo in doubt) [Example 62] : 0.4
6. COc1cnn(C2(CC#N)CN(c3cccn4nc(Nc5cnn(CC(=O)N6CCN(C)CC6)c5)nc34)C2)c1 [Example 28] : 0.4
7. CN1CCN(C2CCN(C(=O)Cn3cc(Nc4nc5c(N6CC(CC#N)(c7cccc(Cl)c7)C6)cccn5n4)cn3)CC2)CC1 [Example 70] : 0.2
8. CN1CCN(C(=O)Cn2cc(Nc3nc4c(N5CC(CC#N)(n6cc(C#N)cn6)C5)cccn4n3)cn2)CC1 [Example 87] : 0.2
9. CC(C)Sc1ccc(C2(CC#N)CN(c3cccn4nc(Nc5cnn(CC(=O)N6CCN(C)CC6)c5)nc34)C2)cc1 [Example 16] : 0.6
10. N#CCC1(n2cc(C(F)(F)F)cn2)CN(c2cccn3nc(Nc4cnn(CC(=O)N5CCN(C6COC6)CC5)c4)nc23)C1 [Example 97] : 0.5

Prompt line: Request the reported Ki associated with N#CCC1(c2cccc(Cl)c2)CN(c2cccn3nc(Nc4cnn(CC(=O)N5CCC(N6CCOCC6)CC5)c4)nc23)C1 [Example 72]
Response line: 0.6

Prompt line: Let us now turn to Cn1cc(Nc2nc3c(N4CC(CC#N)(n5cc(OC(F)F)cn5)C4)cccn3n2)cn1 [Example 145]
Response line: 0.2

Prompt line: Let us now turn to CCc1cnn(C2(CC#N)CN(c3cccn4nc(Nc5ccc(C(=O)N6CCN(C)CC6)cc5)nc34)C2)c1 [Example 38]
Response line: 0.7

Prompt line: Let us now turn to CCc1cnn(C2(C(C)C#N)CN(c3cccn4nc(Nc5cnn(CC(=O)N6CCN(C)CC6)c5)nc34)C2)c1 (stereo not shown) [Example 54]
Response line: 1

Prompt line: Let us now turn to CN1CCN(C(=O)Cn2cc(Nc3nc4c(N5CC(CC#N)(c6ccc(C(F)(F)F)cc6)C5)cccn4n3)cn2)CC1 [Example 17]
Response line: 0.3
